Reported %Inh values for a set of molecules
- System: PIM3;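 also: KINOMEscan kinase panel screen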
- conditions.used: concentration: 1 μM, replicates: in singlicate; n = 1
Expressed in %, but write only the number.

# annotated cases, reported %Inh shown
molecule: Cc1cc(N2CCC(NS(=O)(=O)c3ccc(F)cc3)CC2)nc(Nc2cccc(C#N)c2)n1.O=C(O)C(F)(F)F [GSK1653537]
%Inh, %: 0

molecule: CCc1nc(-c2cccc(N(C)S(=O)(=O)c3ccccc3)c2)c(-c2ccnc(Nc3ccc(N4CCN(C(C)=O)CC4)nc3)n2)s1 [GSK1645895]
%Inh, %: 11

molecule: CSc1nn2c(=O)cc(N3CCOCC3)nc2n1Cc1cccc(Cl)c1Cl [GSK2347225]
%Inh, %: 0

molecule: Clc1cc(Nc2ncnc3cc[nH]c23)ccc1OCc1ccccn1
%Inh, %: 22

molecule: CC(=O)Nc1n[nH]c2ncc(-c3ccccc3)cc12 [SB-548492]
%Inh, %: 14

Read the next record carefully.
%Inh reading for COc1ccc(NC(=O)Nc2ccc(C)c(-c3ccc(C(=O)Nc4ccncc4)cc3)c2)cc1 [GSK1398475] : 3
